Quick record: GI50, MDA-MB-435.
experimental endpoint: GI50

1) O=C(CSCC(=O)N/N=C/c1ccccc1O)N/N=C\c1ccccc1O = 3.44 µM
2) CCC1C(C)C=NN1c1nc(N)nc(C(C#N)=Nc2ccc(N(C)C)cc2)n1 (stereo not given) = 16.7 µM
3) O=C(O)c1cc2ccccc2c2c3c(ccc12)OCO3 = 172 µM
4) COc1cc(Cl)cc(-c2nn(-c3cccc(NC(=O)Nc4cccc(C(F)(F)F)c4)c3)cc2-c2ccncc2)c1 = 1.74 µM
5) N#Cc1cnc2cc(OC[C@@H](O)CO)c(NC(=O)C3CCCC3)cc2c1Nc1ccc(OCc2cccc(F)c2)c(Cl)c1 = 1.82 µM
